- target_entity: full length spike (S) protein of SARS-CoV-2 (SARS-CoV-2, UniProt P0DTC2 14-1273)
- experimental_details: cell-based or functional assay
Items are presented alongside their recorded IC50, pseudovirus neutralization.
measure_name: IC50, pseudovirus neutralization (µg/mL)

P5A-2G7 (antibody, human IgG1, lambda, V domains shown) VH: QVQLQESGPGLVKPSETLSLTCTVSGDSVSSGSYYWSWIRQPPGKGLEWIGYIYYSGSTNYNPSLKSRVTISVDTSKNQFSLKLSSVTAADTAVYYCARERCYYGSGRAPRCVWFDPWGQGTLVTVSS VL: QSALTQPASVSGSPGQSITISCTGTSSDVGGYNYVSWYQQHPGKAPKLMIYDVSNRPSGVSNRFSGSKSGNTASLTISGLQAEDEADYYCSSYTSSSTLVVFGGGTKLTVLG: 0.016
P5A-2E1 (antibody, human IgG1, lambda, V domains shown) VH: EVQLVQSGAEVKKPGESLKISCKGSGYSFTSYWIGWVRQMPGKGLEWMGIIYPGDSDTRYSPSFQGQVTISADKSISTAYLQWSSLKASDTAMYYCAQTSVTRNWFDPWGQGTLVTVSS VL: SYVLTQPPSVSVAPGKTARITCGGNNIGSKSVHWYQQKPGQAPVLVIYYDSDRPSGIPERFSGSNSGNTATLTISRVEAGDEADYYCQVWDSSSDHVVFGGGTKLTVLG: 6.97
P5A-1D2 (antibody, human IgG1, lambda, V domains shown) VH: EVQLVESGGGLIQPGGSLRLSCAASGFIVSSNYMSWVRQAPGKGLEWVSIIYSGGSTYYADSVKGRFTISRDNSNNTLYLQMNSLRAEDTAVYYCARALQVGATSDYFDYWGQGTLVTVSS VL: QSVLTQPPSVSGAPGQRVTISCTGSSSNIGAGYDVHWYQQLPGTAPKLLIYGNSNRPSGVPDRFSGSKSGTSASLAITGLQAEDETDYYCQSCDSSLSVVVFGGGTKLTVLG: 0.035
P5A-3C8 (antibody, human IgG1, kappa, V domains shown) VH: EVQLVESGGGLIQPGGSLRLSCAASGFTVSSNYMSWVRQAPGKGLEWVSFIYSGGSTYYADSVKGRFTISRDNSKNTLYLQMNSLRAEDTAVYYCARDLQEHGMDVWGQGTTVTVSS VL: DIQLTQSPSSLSASVGDRVTITCRASQGISSYLAWYQQKPGKAPKLLIYAASTLQSGVPSRFSGSGSGTDFTLTISSLQPEDFATYYCQHLNSYPPGYTFGQGTKLEIKR: 0.024
P5A-1C8 (antibody, human IgG1, kappa, V domains shown) VH: QVQLVQSGAEVKKPGASVKVSCKASGYTFTSYYMHWVRQAPGQGLEWMGIINPSGGSTSYAQKFQGRVTMTRDTSTSTVYMELSSLRSEDTAVYYCARSARDYYDSSGYYYRAEYFQHWGQGTLVTVSS VL: DIQMTQSPSSLSASVGDRVTITCQASQDISNYLNWYQQKPGKAPKLLIYDASNLETGVPSRFSGSGSGTDFTFTISSLQPEDIATYYCQQYDNLPSITFGQGTRLEIKR: 0.434
